assay-system: human plasma kallikrein (Homo sapiens (Human), UniProt P03952)
Sequence (P03952 whole entry, looked up): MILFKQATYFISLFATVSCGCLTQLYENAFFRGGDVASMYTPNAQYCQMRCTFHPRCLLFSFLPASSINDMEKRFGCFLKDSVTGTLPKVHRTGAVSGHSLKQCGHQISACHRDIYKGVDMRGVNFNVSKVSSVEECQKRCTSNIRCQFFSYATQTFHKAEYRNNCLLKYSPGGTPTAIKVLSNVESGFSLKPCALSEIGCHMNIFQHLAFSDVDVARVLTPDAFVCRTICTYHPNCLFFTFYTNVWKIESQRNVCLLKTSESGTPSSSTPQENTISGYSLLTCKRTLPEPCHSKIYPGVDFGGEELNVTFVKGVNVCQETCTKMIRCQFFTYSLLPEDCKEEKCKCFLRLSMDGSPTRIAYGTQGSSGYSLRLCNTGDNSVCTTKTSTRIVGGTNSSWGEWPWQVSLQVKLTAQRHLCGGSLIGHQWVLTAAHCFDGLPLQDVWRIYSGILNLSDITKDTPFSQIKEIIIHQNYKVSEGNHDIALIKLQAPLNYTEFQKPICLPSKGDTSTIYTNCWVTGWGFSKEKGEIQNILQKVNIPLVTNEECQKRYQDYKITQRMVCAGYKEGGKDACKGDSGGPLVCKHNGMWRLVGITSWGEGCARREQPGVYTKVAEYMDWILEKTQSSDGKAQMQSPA
Sequence (P03952 whole entry partner, looked up): as the sequence (P03952 whole entry, looked up) above
assay-method-text: Plasma kallikrein activity assay (chromogenic substrate S2302)
Format: biochemical
run-conditions: 2 nM kallikrein, 80 μM S2302, 30° C., pH 7.8; Ki by Cheng-Prusoff equation; values given as ranges; read-out: Ki
Answer each item with its documented Ki.

The molecule listed as NCc1cccc(-n2nc(C(F)(F)F)cc2C(=O)Nc2cccc(C(NCC3CC3)c3ccc(O)c(Br)c3)c2)c1 (stereo not shown) [207j] has a reported Ki of 0.0001 to 0.05 µM

The molecule listed as CCCCC(c1ccccc1)c1cccc(NC(=O)c2cc(C(F)(F)F)nn2-c2cccc(CN)c2)c1 (stereo not shown) [32f] has a reported Ki of 0.05 to 0.1 µM

The molecule listed as NCc1cccc(-n2nc(C(F)(F)F)cc2C(=O)Nc2cccc(C(OCC3CC3)c3ccccc3)c2)c1 (single isomer, unassigned; (+)) [166e] has a reported Ki of 0.0001 to 0.05 µM

The molecule listed as Cc1cc(C(=O)Nc2cccc(C(NCC3CC3)c3ccccc3)c2)n(-c2cccc(CN)c2)n1 (stereo not shown) [143l] has a reported Ki of 0.0001 to 0.05 µM

The molecule listed as NCc1cccc(-n2nc(C(F)(F)F)cc2C(=O)Nc2cccc(C(CCC3CC3)N3CCCC3=O)c2)c1 (stereo not shown) [247e] has a reported Ki of 0.0001 to 0.05 µM

The molecule listed as CCCN(c1ccccc1)c1cccc(NC(=O)c2cc(C(F)(F)F)nn2-c2cccc(CN)c2)c1 [27f] has a reported Ki of 0.05 to 0.1 µM

The molecule listed as Cc1ccccc1C(NCC1CC1)c1cccc(NC(=O)c2cc(C(F)(F)F)nn2-c2cccc(CN)c2)c1 (stereo not shown) [193f] has a reported Ki of 0.0001 to 0.05 µM

* * *

Answer each item with its documented Ki.
assay-system: human plasma kallikrein (Homo sapiens (Human))
assay-method-text: Plasma kallikrein activity assay (chromogenic substrate S2302)
Format: biochemical
run-conditions: Ki, 2 nM kallikrein, 80 μM S2302, 30° C., pH 7.8; Ki by Cheng-Prusoff equation; values given as ranges

The compound listed as NCc1cccc(-n2nc(C(F)(F)F)cc2C(=O)Nc2cccc(C(OCCC3CC3)c3ccccc3)c2)c1 (centres unmarked) [74a] has a reported Ki of 0.1 to 50 nM

The compound listed as NCc1cccc(-n2nc(C(F)(F)F)cc2C(=O)Nc2cccc(C(NCC3CC3)c3cc4ccccc4c4ccccc34)c2)c1 (centres unmarked) [125g] has a reported Ki of 0.1 to 50 nM

* * *

assay-system: human plasma kallikrein (Homo sapiens (Human), UniProt P03952)
assay-method-text: Plasma kallikrein activity assay (chromogenic substrate S2302)
Format: biochemical
run-conditions: 2 nM kallikrein, 80 μM S2302, 30° C., pH 7.8; Ki by Cheng-Prusoff equation; values given as ranges; read-out: Ki
Answer each item with its documented Ki.

The compound listed as N#Cc1cccc(C(NCC2CC2)c2ccc(F)c(NC(=O)c3cc(C(F)(F)F)nn3-c3cccc(C(=N)N)c3)c2)c1 (single isomer, unassigned; (+)) [236h] has a reported Ki of 0.1 to 50 nM

The compound listed as CCCOC(c1ccccc1)c1cccc(NC(=O)c2cc(C(F)(F)F)nn2-c2cccc(CN)c2)c1 (stereo not shown) [18h] has a reported Ki of 50 to 100 nM

The compound listed as NCc1cccc(-n2nc(C(F)(F)F)cc2C(=O)Nc2cccc(C(O)(CCC3CC3)c3ccccn3)c2)c1 (stereo not shown) [45g] has a reported Ki of 0.1 to 50 nM

The compound listed as NCc1cccc(-n2nc(C(F)(F)F)cc2C(=O)Nc2cccc(C(NCC3CC3)c3cccc(OC(F)(F)F)c3)c2)c1 (stereo not shown) [124f] has a reported Ki of 0.1 to 50 nM

The compound listed as NCc1cccc(-n2nc(C(F)(F)F)cc2C(=O)Nc2cccc(C(NCC3CC3)c3ccc(-c4ccccc4)cc3)c2)c1 (stereo not shown) [133g] has a reported Ki of 0.1 to 50 nM

The compound listed as NCc1cccc(-n2nc(C(F)(F)F)cc2C(=O)Nc2cccc(C(CCC3CC3)c3ccccc3)c2)c1 (stereo not shown) [78d] has a reported Ki of 0.1 to 50 nM

The compound listed as NCc1cccc(-n2nc(C(F)(F)F)cc2C(=O)Nc2cccc(C(NC(=O)C3CC3)c3ccccc3)c2)c1 (stereo not shown) [115e] has a reported Ki of 50 to 100 nM

* * *

Answer each item with its documented pKi.
assay-system: human plasma kallikrein (Homo sapiens (Human), UniProt P03952)
assay-method-text: Plasma kallikrein activity assay (chromogenic substrate S2302)
Format: biochemical
run-conditions: 2 nM kallikrein, 80 μM S2302, 30° C., pH 7.8; Ki by Cheng-Prusoff equation; values given as ranges; read-out: Ki
pKi: −log10 of the molar value.

The compound listed as CS(=O)(=O)NC(CCC1CC1)(c1ccncc1)c1ccc(F)c(NC(=O)c2cc(C(F)(F)F)nn2-c2ccc3ccnc(N)c3c2)c1 (single isomer, unassigned; (-)) [262f] has a reported pKi of 7.30 to 10.00

The compound listed as CC(C)NC(c1ccccc1)c1cccc(NC(=O)c2cc(C(F)(F)F)nn2-c2cccc(CN)c2)c1 (centres unmarked) [144d] has a reported pKi of 7.30 to 10.00

The compound listed as NCc1cccc(-n2nc(C(F)(F)F)cc2C(=O)Nc2cccc(C(OCC3CCC3)c3ccccc3)c2)c1 (centres unmarked) [75a] has a reported pKi of 7.00 to 7.30

The compound listed as N=C(N)c1cccc(-n2nc(C(F)(F)F)cc2C(=O)Nc2cc(C(N)(CCC3CC3)c3cccnc3)ccc2F)c1 (single isomer, unassigned; (+)) [238d] has a reported pKi of 7.30 to 10.00

The compound listed as CCOC(c1ccccc1)c1ccc(F)c(NC(=O)c2cc(C(F)(F)F)nn2-c2cccc(CN)c2)c1 (centres unmarked) [25b] has a reported pKi of 7.00 to 7.30

* * *

Answer each item with its documented pKi.
assay-system: human plasma kallikrein (Homo sapiens (Human))
assay-method-text: Plasma kallikrein activity assay (chromogenic substrate S2302)
Format: biochemical
run-conditions: 2 nM kallikrein, 80 μM S2302, 30° C., pH 7.8; Ki by Cheng-Prusoff equation; values given as ranges; read-out: Ki
pKi: −log10 of the molar value.

The compound listed as Nc1nccc2ccc(-n3nc(C(F)(F)F)cc3C(=O)Nc3cc(C(CCC4CC4)n4ccccc4=O)ccc3F)cc12 (stereo not shown) [258g] has a reported pKi of 7.30 to 10.00

The compound listed as NCc1cccc(-n2nc(C(F)(F)F)cc2C(=O)Nc2cccc(C(OCC3CC3)c3cccnc3)c2)c1 (racemic) [44c] has a reported pKi of 7.30 to 10.00

The compound listed as NCc1cccc(-n2nc(C(F)(F)F)cc2C(=O)Nc2cccc(C(O)(CCC3CC3)c3ccccc3)c2)c1 (single isomer, unassigned; (+)) [46h] has a reported pKi of 7.30 to 10.00

The compound listed as NCc1cccc(-n2nc(C(F)(F)F)cc2C(=O)Nc2cccc(C(O)(CCC3CC3)c3ccccc3)c2)c1 (single isomer, unassigned; (-)) [46i] has a reported pKi of 7.30 to 10.00

The compound listed as NCc1cccc(-n2nc(C(F)(F)F)cc2C(=O)Nc2cccc(C(OCC3CC3)c3cccc(N)c3)c2)c1 (single isomer, unassigned; (-)) [64a] has a reported pKi of 7.30 to 10.00

The compound listed as NCc1cccc(-n2nc(C(F)(F)F)cc2C(=O)Nc2cccc(C(NCC3CC3)c3cn[nH]c3)c2)c1 (stereo not shown) [84h] has a reported pKi of 7.30 to 10.00

The compound listed as NCc1cccc(-n2nc(C(F)(F)F)cc2C(=O)Nc2cccc(C(O)(CNC3CC3)c3ccccc3)c2)c1 (stereo not shown) [99g] has a reported pKi of 7.30 to 10.00

The compound listed as N#Cc1ccc(C(N)(CCC2CC2)c2ccc(F)c(NC(=O)c3cc(C(F)(F)F)nn3-c3cccc(C(=N)N)c3)c2)cc1 (single isomer, unassigned; (+)) [241a] has a reported pKi of 7.30 to 10.00

The compound listed as NCc1cccc(-n2nc(C(F)(F)F)cc2C(=O)Nc2cc(C(NCC3CC3)c3cccc(N)c3)ccc2F)c1 (stereo not shown) [131b] has a reported pKi of 7.30 to 10.00

The compound listed as NCc1cccc(-n2nc(C(F)(F)F)cc2C(=O)Nc2cc(C(N)(CCC3CC3)c3ccncc3)ccc2F)c1 (single isomer, unassigned; (-)) [217d] has a reported pKi of 7.00 to 7.30

The compound listed as CC(C)C(=O)NC(CCC1CC1)(c1cccnc1)c1ccc(F)c(NC(=O)c2cc(C(F)(F)F)nn2-c2cccc(CN)c2)c1 (single isomer, unassigned; (-)) [244j] has a reported pKi of 7.30 to 10.00

The compound listed as Cc1ccc(C(NCC2CC2)c2cccc(NC(=O)c3cc(C(F)(F)F)nn3-c3cccc(CN)c3)c2)c(C)c1 (stereo not shown) [201f] has a reported pKi of 7.30 to 10.00

The compound listed as N#Cc1cccc(C(N)(CCC2CC2)c2ccc(F)c(NC(=O)c3cc(C(F)(F)F)nn3-c3cccc(CN)c3)c2)n1 (single isomer, unassigned; (+)) [220f] has a reported pKi of 7.30 to 10.00
